OBSERVABLE: melting point (°C)

CN(C)CCNS(=O)(=O)c1cccc(NC(=O)c2cnn3c(C(F)F)cc(-c4ccc(C(F)(F)F)cc4)nc23)c1 :: 184
Cc1cc(N(C)S(=O)(=O)c2cccs2)c2[nH]c(C3=NCC(CNC(=O)OCc4ccccc4)S3)cc2c1 (centres undefined) :: 160

---

We begin with a simple list: items and their reported melting point.

Cc1ccccc1C(=O)Nc1ccc(C(=O)N2CCCC(OCC(=O)N3CCSCC3)c3ccccc32)cc1 (stereo unspecified) :: 235 to 237 °C
CN1C(=O)C(NC(=O)c2cc3ccccc3[nH]2)C(=O)N(c2ccccc2)c2cc(Cl)ccc21 (stereo unspecified) :: 280 °C
CN1C(=O)CC[C@]2(C)c3ccc(-c4cccc5cccnc45)cc3CC[C@@H]12 :: 205 to 207 °C
O=C(O)CCCc1ccc2c(NC(=O)CC3CCCCC3)c(Cl)ccc2n1 :: 216 to 220 °C
COc1ccc(C=O)cc1OC(=O)CCl :: 88 to 89 °C

Request: Recorded melting point for Cc1nnc(F)c(-c2c(F)cc(F)cc2F)c1-c1ccc(Cl)cc1 , please?
Result: 114 to 115 °C

Request: What do we get for CCOC(=O)C(=CNc1ccnn1-c1ccccc1)C(=O)OCC ?
Result: 96 to 97 °C

Request: What do we get for O=C(O)C1=Cc2cc(SC(F)(F)F)ccc2OC1C(F)(F)F (stereo unspecified) ?
Result: 139 to 143 °C

Request: What do we get for COC(=O)c1sc2ccccc2c1CBr ?
Result: 101 to 102 °C

Request: What do we get for COCc1cc([N+](=O)[O-])ccc1N1C(=O)c2ccc(Cl)cc2C1=O ?
Result: 125 to 128 °C

Request: What do we get for COC(=O)CC(=O)c1cncc(OC)n1 ?
Result: 66 °C

Request: What do we get for O=C(CN1CCN(C(=O)OCc2ccccc2)CC1)Nc1ccccn1 ?
Result: 78 to 80 °C

Request: What do we get for CCSC(=O)N(C=C(C#N)C#N)c1cccc(Cl)c1 ?
Result: 68 °C

Request: What do we get for CC(C)(C)OC(=O)NC1CCc2ccccc2C(F)C1=O (stereo unspecified) ?
Result: 127 to 129 °C

Request: What do we get for CC(C)S(=O)(=O)c1ccc2c(c1)nc(CC(C)(C)C)n2CC1(O)CCOCC1 ?
Result: 189 °C

Request: What do we get for CCOC(=O)c1cn(-c2cc(OC)c(F)cc2F)c2c(C)c([N+](=O)[O-])c(F)cc2c1=O ?
Result: 248 to 250 °C

---

OBSERVABLE: melting point

Some solved entries appear below for comparison.
COc1cc(OCC(=O)O)c(C)cc1SCc1cccc(-c2cccc(OC(F)(F)F)c2)c1 :: 92 to 94 °C
CCC(C)(C)c1ccc(OCCCCc2c(O)c(N)c3ccccc3c2C(N)=O)c(C(C)(C)CC)c1 :: 93 to 96 °C
O=C(NCCCCn1cncn1)c1ccco1 :: 78 to 79 °C
Clc1ccc2[nH]c3c(c2c1)CN(CCCCc1ccncc1)CC3 :: 227 to 228 °C
O=C1CC(c2c(-c3ccc[nH]3)[nH]c3ccccc23)C(=O)N1 (stereo unspecified) :: 67 to 69 °C

Please look at the following molecule next.
Request: Recorded melting point for COC(=O)C1C(c2ccc(Br)cc2)CC2CCC1N2C (stereo unspecified) , please?
Result: 114 to 116 °C
